In this section we review reported IC50 values for a set of molecules.
Target: DYRK1A (Homo sapiens (Human))
Experiment: DYRK1A kinase binding assay using LanthaScreen Eu

Some molecules with recorded IC50:
COCCN(C)c1cc(Nc2ccc(C(=O)N3CCC(N4CCOCC4)CC3)cc2OC)nc2[nH]cc(C(F)(F)F)c12
10 to 100 nM
COCCNc1cc(Nc2ccc(C(=O)N3CCN(C)CC3)cc2OC)nc2[nH]cc(C(F)(F)F)c12
10 to 100 nM
COc1cc(C(=O)N2CCOCC2)ccc1Nc1cc(NC2CC2)c2c(C(F)(F)F)c[nH]c2n1
10 to 100 nM
COc1cc(C(=O)N2CCC(N3CCOCC3)CC2)ccc1Nc1cc(NC(C)C)c2c(C(F)(F)F)c[nH]c2n1
10 to 100 nM
CCNc1cc(Nc2ccc(C(=O)N3CCC(N4CCN(C)CC4)CC3)cc2OC)nc2[nH]cc(C(F)(F)F)c12
10 to 100 nM
COCCNc1cc(Nc2ccc(C(=O)N3CCOCC3)cc2OC)nc2[nH]cc(C(F)(F)F)c12
10 to 100 nM

As a next step, examine the molecule that follows.
# lookup: IC50 of COCCN(C)c1cc(Nc2ccc(C(=O)N3CCOCC3)cc2OC)nc2[nH]cc(C(F)(F)F)c12 10 to 100 nM

====

Biological target: DYRK1A (Homo sapiens (Human), UniProt Q13627)
Test: DYRK1A kinase inhibition, 33P-ATP filter-binding method
Assay type: biochemical
Conditions: IC50 grade; head prints μM, key nM
observedProperty: IC50

Previously resolved entries follow.
COCCNc1cc(Nc2cc(OC)c(OC)c(OC)c2)nc2[nH]cc(C#N)c12
0.01 to 0.1 µM
COCCNc1cc(Nc2ccc(C(=O)N3CCC(N4CCOCC4)CC3)cc2OC)nc2[nH]cc(C(F)(F)F)c12
< 0.01 µM
CNc1cc(Nc2ccc(C(=O)N3CCC(N4CCN(C)CC4)CC3)cc2OC)nc2[nH]cc(C(F)(F)F)c12
< 0.01 µM
CNc1cc(Nc2ccc(C(=O)N3CCC(N4CCOCC4)CC3)cc2OC)nc2[nH]cc(C(F)(F)F)c12
< 0.01 µM

Note: attention shifts to another entry.
Please state recorded IC50 (tested on DYRK1A (Homo sapiens (Human), UniProt Q13627)) of CCNc1cc(Nc2ccc(C(=O)N3CCO[C@@H](C)C3)cc2OC)nc2[nH]cc(C#N)c12 > 0.1 µM

====

In this section, each of the molecules is paired with its reported IC50.
Biological target: UniProtKB Q13627
Assay: DYRK1A kinase binding assay using LanthaScreen Eu

// below: answered molecules
COc1cc(C(=O)N2CCC(N3CCOCC3)CC2)ccc1Nc1cc(N[C@@H](CO)C(C)C)c2c(C(F)(F)F)c[nH]c2n1
0.01 to 0.1 µM
COCCNc1cc(Nc2cc(F)c(C(=O)NC3CCN(C)CC3)cc2OC)nc2[nH]cc(C(F)(F)F)c12
0.01 to 0.1 µM

--- query ---
Lab request: please report IC50 under test system UniProtKB Q13627 for CCNc1cc(Nc2cc(F)c(C(=O)NC3CCN(C(C)C)CC3)cc2OC)nc2[nH]cc(C(F)(F)F)c12 0.01 to 0.1 µM

====

Target: DYRK1A (Homo sapiens (Human))
Experiment: DYRK1A kinase inhibition, 33P-ATP filter-binding method
Assay type: biochemical
Conditions: IC50 grade; head prints μM, key nM
observedProperty: IC50

CNc1cc(Nc2cc(F)c(C(=O)N3CCN(C)CC3)cc2OC)nc2[nH]cc(C(F)(F)F)c12 [Example 60]
0.01 to 0.1 µM

// IC50 lookup, key: CCNc1cc(Nc2cc(OC)c(OC)c(OC)c2)nc2[nH]cc(C(F)(F)F)c12 [Example 53] 0.01 to 0.1 µM

Queued: CCNc1cc(Nc2ccc(C(=O)N3CCOCC3)cc2OC)nc2[nH]cc(C(F)(F)F)c12 [Example 56] < 0.01 µM

Now give it for CCCNc1cc(Nc2ccc(C(=O)N3CCOCC3)cc2OC)nc2[nH]cc(C#N)c12 [Example 10] too. < 0.01 µM

Moving on to COCCNc1cc(Nc2ccc(C(=O)N3CCOCC3)cc2OC)nc2[nH]cc(C#N)c12 [Example 4] > 0.1 µM

====

Molecular target: DYRK1A (Homo sapiens (Human), UniProt Q13627)
Experiment: DYRK1A kinase inhibition, 33P-ATP filter-binding method
Format: biochemical
Conditions: IC50 grade; head prints μM, key nM
observedProperty: IC50

# lookup: IC50 of CCNc1cc(Nc2ccc(C(=O)N3CCOCC3)cc2OC)nc2[nH]cc(C#N)c12 < 0.01 µM

COCCNc1cc(Nc2ccc(C(=O)N3CCC(N4CCN(C)CC4)CC3)cc2OC)nc2[nH]cc(C(F)(F)F)c12 ? < 0.01 µM

Same read-out for CNc1cc(Nc2ccc(C(=O)N3CCO[C@@H](C)C3)cc2OC)nc2[nH]cc(C#N)c12 ? > 0.1 µM

Okay, and CNc1cc(Nc2ccc(C(=O)N3CCOCC3)cc2OC)nc2[nH]cc(C#N)c12 ? > 0.1 µM

Also need CNc1cc(Nc2ccc(C(=O)N3CCN(C)CC3)cc2OC)nc2[nH]cc(C(F)(F)F)c12 , thanks. < 0.01 µM
